For each record, write down the corresponding furin cleavage Z-score.
Molecular target: furin, P09958;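 also: purified furin at 1:10 enzyme:substrate in 50 mM HEPES pH 7.5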
Sequence (P09958 whole entry): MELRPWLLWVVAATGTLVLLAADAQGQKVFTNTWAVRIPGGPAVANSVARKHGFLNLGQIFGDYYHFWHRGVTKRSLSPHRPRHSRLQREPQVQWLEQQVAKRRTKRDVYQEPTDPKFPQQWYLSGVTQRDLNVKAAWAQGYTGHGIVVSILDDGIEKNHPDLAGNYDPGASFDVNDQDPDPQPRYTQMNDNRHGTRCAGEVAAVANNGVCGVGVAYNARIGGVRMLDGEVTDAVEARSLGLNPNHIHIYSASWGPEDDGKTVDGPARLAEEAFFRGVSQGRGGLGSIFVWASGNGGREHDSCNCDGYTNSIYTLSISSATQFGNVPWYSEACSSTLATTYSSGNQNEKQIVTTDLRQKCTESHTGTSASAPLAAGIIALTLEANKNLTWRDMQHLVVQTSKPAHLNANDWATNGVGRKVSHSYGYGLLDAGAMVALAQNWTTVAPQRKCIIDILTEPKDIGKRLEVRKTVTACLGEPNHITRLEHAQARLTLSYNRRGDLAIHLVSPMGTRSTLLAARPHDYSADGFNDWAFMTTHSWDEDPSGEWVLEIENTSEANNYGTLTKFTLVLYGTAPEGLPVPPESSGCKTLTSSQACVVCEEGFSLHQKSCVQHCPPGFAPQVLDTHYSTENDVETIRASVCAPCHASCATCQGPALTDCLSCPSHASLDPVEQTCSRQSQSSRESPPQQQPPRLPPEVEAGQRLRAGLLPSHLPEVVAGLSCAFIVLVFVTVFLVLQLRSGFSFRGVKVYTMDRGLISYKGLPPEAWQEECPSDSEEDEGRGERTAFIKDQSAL
Assay: furin cleavage Z-score vs untreated control; higher = more cleavage, active = 3.5 or more, inactive = 1 or less, 8 variable residues between constant flanks
Settings: 15 min
The list shows a part of the results. How many sequences the whole screen found active is unknown.

Give recorded furin cleavage Z-score. CARKKRALDTAGNASASA [FS-2561]
11.1 (active)

Return reported furin cleavage Z-score. Input sequence: CAMEECGQHLAGNASASA [HC22]
0.186 (inactive)

Output furin cleavage Z-score of CARKKRALDAAGNASASA [FS-2691]
11.5 (active)

Hello, please tell me recorded furin cleavage Z-score for this one: CAKWVPGAVYAGNASASA [HC551]
-1.76 (inactive)
